# MIC values compiled below
system: Escherichia coli; assay: Antimicrobial activity against Escherichia coli ATCC 25922 by serial plate dilution method; type: functional
A number alone suffices; assume µM.

// solved cases for MIC follow
Cc1nn(-c2nc3ccc(Cl)cc3s2)c(C)c1/N=N/c1ccc(C(=O)O)cc1
243
CC1=NN(c2nc3ccc(Cl)cc3s2)C(=O)/C1=N/Nc1ccccc1O
260

Next:
What the record says about `CC1=NN(c2nc3ccc(Cl)cc3s2)C(=O)/C1=N/Nc1ccc(C)cc1` : MIC is 131

====

system: Candida albicans; assay: Antimicrobial activity against Candida albicans ATCC 90028 by serial plate dilution method; format: functional
Readout: MIC (µM)
A number alone suffices; assume µM.

// solved cases for MIC follow
Cc1ccc(/N=N/c2c(C)nn(-c3nc4ccc(Cl)cc4s3)c2C)cc1
131
Cc1nn(-c2nc3ccc(Cl)cc3s2)c(C)c1/N=N/c1ccc(Cl)cc1
249
CC1=NN(c2nc3ccc(Cl)cc3s2)C(=O)/C1=N/Nc1ccc(Cl)cc1
124
Cc1nn(-c2nc3ccc(Cl)cc3s2)c(C)c1/N=N/c1ccccc1Cl
125
Cc1nn(-c2nc3ccc(Cl)cc3s2)c(C)c1/N=N/c1ccccc1C(=O)O
243

Observed MIC, Candida albicans, `CC1=NN(c2nc3ccc(Cl)cc3s2)C(=O)/C1=N/Nc1ccccc1Cl` : 248

Observed MIC, Candida albicans, `Cc1nn(-c2nc3ccc(Cl)cc3s2)c(C)c1/N=N/c1ccc(C(=O)O)cc1` : 243
